# Test system: ip L1210 leukemia
# MEASUREMENT_NOTES: ip-implanted L1210 leukemia in mice;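 also: each mouse received 10^6 L1210 cells intraperitoneally, with drug treatment also given by the i.p. route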
# CONDITIONS_USED: ip L1210 (10^6 cells); drug i.p. Days 1 and 5 at maximally tolerated dose
Where a name gives a salt, the structure may show the parent alone.
compounds and their reported In Vivo Antitumor Activity ILS (increase in lifespan)

In the examples that follow, each entry is paired with its recorded In Vivo Antitumor Activity ILS (increase in lifespan).
CC[C@@]1(O)C(=O)OCc2c1cc1n(c2=O)Cc2cc3c(C[N+](C)(C)C)c(O)ccc3nc2-1 [3S, Methanesulfonate Salt]; > 200%
CC[C@@]1(O)C(=O)OCc2c1cc1n(c2=O)Cc2cc3cc(O)ccc3nc2-1 [10-Hydroxycamptothecin, (20 S) 10-Hydroxycamptothecin, reference compound]; 94%
CC[C@@]1(O)C(=O)OCc2c1cc1n(c2=O)Cc2cc3c(COCCN(C)C)c(O)ccc3nc2-1 [13S, Hydrochloride Salt]; 188%
CC[C@@]1(O)C(=O)OCc2c1cc1n(c2=O)Cc2cc3cc(CN)ccc3nc2-1 [20S, Acetate salt]; 112%
CC[C@@]1(O)C(=O)OCc2c1cc1n(c2=O)Cc2cc3c(CNCCN(C)C)c(O)ccc3nc2-1 [12S, Dihydrochloride Salt]; 94%
CC[C@@]1(O)C(=O)OCc2c1cc1n(c2=O)Cc2cc3c(CN4CCC(N5CCCCC5)CC4)c(O)ccc3nc2-1; 44%
CC[C@@](O)(C(=O)O)c1cc2n(c(=O)c1CO)Cc1cc3c(CN(C)C)c(O)ccc3nc1-2 [21S, Sodium Salt]; > 200%
CC[C@@]1(O)C(=O)OCc2c1cc1n(c2=O)Cc2cc3c(CN4CCOCC4)cccc3nc2-1 [18S, (20S) 9-Morpholinomethylcamptothecin]; 144%

The measured In Vivo Antitumor Activity ILS (increase in lifespan) associated with "CC[C@@]1(O)C(=O)OCc2c1cc1n(c2=O)Cc2cc3c(CN(C)c4ccccc4)c(O)ccc3nc2-1" reads 112%
